# assay: Half life in 1 mM potassium phosphate buffer at pH 7.4 at 50 uM by spectrophotometric analysis
# Assay type: physicochemical
reportedMetric: half-life at 50 µM (min)
Please give a number only; it is taken to be in min.

Request: Tell us which half-life at 50 µM value is on record for CS(=O)(=O)NN(CCCl)S(C)(=O)=O [VPN-4090CE]
Response: 0.55

Request: Tell us which half-life at 50 µM value is on record for CN(N(C(=O)N(CCCl)N=O)S(C)(=O)=O)S(C)(=O)=O
Response: 13.4

Request: Tell us which half-life at 50 µM value is on record for CN(N=O)C(=O)N(N(CCCl)S(C)(=O)=O)S(C)(=O)=O
Response: 10
